Listing: MIC of selected compounds
Test system: Pseudomonas aeruginosa
Assay details: Antibacterial activity against Pseudomonas aeruginosa MTCC 1688 by two-fold serial dilution method
Type: functional
Endpoint name: MIC (µM)

1) CC1=C(C(=O)Nc2ccc(C)cc2C)C(c2cccc(Cl)c2)NC(=S)N1 (stereo not given)	649
2) CC1=C(C(=O)Nc2ccc(C)cc2C)C(c2cccc([N+](=O)[O-])c2)NC(=S)N1 (stereo not given)	812
3) CC1(C)S[C@@H]2[C@H](NC(=O)[C@H](N)c3ccccc3)C(=O)N2[C@H]1C(=O)O [AMPICILLIN]	100
4) CC1=C(C(=O)Nc2ccc(C)cc2C)C(c2ccccc2O)NC(=S)N1 (stereo not given)	406
5) O=C(N[C@H](CO)[C@H](O)c1ccc([N+](=O)[O-])cc1)C(Cl)Cl [CHLORAMPHENICOL]	50
6) CC1=C(C(=O)Nc2ccc(C)cc2C)C(c2ccccc2[N+](=O)[O-])NC(=S)N1 (stereo not given)	649
7) CC1=C(C(=O)Nc2ccc(C)cc2C)C(c2ccc(Cl)cc2)NC(=S)N1 (stereo not given)	649
8) CC1=C(C(=O)Nc2ccc(C)cc2C)C(c2cccc(O)c2)NC(=S)N1 (stereo not given)	649
9) COc1ccc(C2NC(=S)NC(C)=C2C(=O)Nc2ccc(C)cc2C)cc1 (stereo not given)	325
10) CC1=C(C(=O)Nc2ccc(C)cc2C)C(c2ccc([N+](=O)[O-])cc2)NC(=S)N1 (stereo not given)	812
